run description: Microsomal incubations, human liver microsomes
Assay type: in vitro ADME
measurement setup: 1 μM, 15 min
Exercise: state measured HLM % metabolized after 15 min for each of the molecules provided.
Please answer in the form of a number followed by its unit of measurement.

Task: I have this molecule here, Cc1cccc([C@H]2c3ccsc3CCN2C(=O)CNCC(C)C)n1 , and I need its recorded HLM % metabolized after 15 min.
Output: 28.8%

Task: I have this molecule here, C=CCNCC(=O)N1CCc2sccc2C1COc1ccc(Cl)cc1 (stereo not shown) , and I need its recorded HLM % metabolized after 15 min.
Output: 43.0%

Task: I have this molecule here, CCC(C)CNCC(=O)N1CCc2sccc2C1c1cccc(C)n1 (stereo not shown) , and I need its recorded HLM % metabolized after 15 min.
Output: 36.9%

Task: I have this molecule here, CCC(C)CNCC(=O)N1CCc2ccccc2C1c1ccccc1 (stereo not shown) , and I need its recorded HLM % metabolized after 15 min.
Output: 30.3%

Task: I have this molecule here, CCC(C)CNCC(=O)N1CCc2sccc2C1c1cccc(C)c1 (stereo not shown) , and I need its recorded HLM % metabolized after 15 min.
Output: 44.4%

Task: I have this molecule here, CC(=O)N1CCc2sccc2C1c1ccccc1 (stereo not shown) , and I need its recorded HLM % metabolized after 15 min.
Output: 52.5%

Task: I have this molecule here, CC(=O)N1CCc2ccccc2C1c1ccccc1 (stereo not shown) , and I need its recorded HLM % metabolized after 15 min.
Output: 45.2%

* * *

Exercise: state measured Papp B→A at 2 h, 10 μM for each of the compounds provided.
run description: Caco-2 permeability assay
Assay type: in vitro ADME, human
measurement setup: human, Caco-2, pH 7.4, 10 µM, + Verapamil (P-glycoprotein inhibitor)
Please answer in the form of a number followed by its unit of measurement.

Task: I have this compound here, CCC(C)CNCC(=O)N1CCc2sccc2C1c1cccc(C)n1 (stereo not drawn) , and I need its recorded Papp B→A at 2 h, 10 μM.
Output: 22.7 ×10⁻⁶ cm/s

Task: I have this compound here, CCC(C)CNCC(=O)N1CCc2sccc2C1c1cccc(C)c1 (stereo not drawn) , and I need its recorded Papp B→A at 2 h, 10 μM.
Output: 19.8 ×10⁻⁶ cm/s

Task: I have this compound here, C=CCNCC(=O)N1CCc2sccc2C1COc1ccc(Cl)cc1 (stereo not drawn) , and I need its recorded Papp B→A at 2 h, 10 μM.
Output: 12.5 ×10⁻⁶ cm/s

* * *

Exercise: state measured Papp at 16 h, 10 μM for each of the compounds provided.
run description: PAMPA parallel artificial membrane permeability assay
measurement setup: PAMPA, pH 5, PAMPA Papp pH 5, donor pH 5, 10 µM

Task: I have this compound here, C=CCNCC(=O)N1CCc2sccc2C1COc1ccc(Cl)cc1 (centres unmarked) , and I need its recorded Papp at 16 h, 10 μM.
Output: < 1.5 ×10⁻⁶ cm/s

Task: I have this compound here, CCC(C)CNCC(=O)N1CCc2sccc2C1c1cccc(C)c1 (centres unmarked) , and I need its recorded Papp at 16 h, 10 μM.
Output: < 0.7 ×10⁻⁶ cm/s

Task: I have this compound here, CC(=O)N1CCc2ccccc2C1c1ccccc1 (centres unmarked) , and I need its recorded Papp at 16 h, 10 μM.
Output: > 200 ×10⁻⁶ cm/s

Task: I have this compound here, CCC(C)CNCC(=O)N1CCc2ccccc2C1c1ccccc1 (centres unmarked) , and I need its recorded Papp at 16 h, 10 μM.
Output: 1.3 ×10⁻⁶ cm/s

Task: I have this compound here, CC(=O)N1CCc2sccc2C1c1ccccc1 (centres unmarked) , and I need its recorded Papp at 16 h, 10 μM.
Output: > 200 ×10⁻⁶ cm/s
